Origin of measurements: the supplement of paper PMC9170038

tested on: MS2 coat protein; test: apparent KD of MS2 coat protein; higher = weaker reporter binding; settings: Eterna round: R107; input ligand: none
endpointName: apparent KD of MS2 coat protein (nM)

INSERT INTO results (sequencecontent, unitofmeasure, numericresult) VALUES
  ('ACAUGAGGAUCACCCAUGUAAAUAACGGAAGGAGCGUGCAAAAGCACAGGUAGGUCGCCGAUAUAAAUAUUGGGUAUUAUAUUUU [AstrosExyArgA#3]', 'nM', 30.4),
  ('UGUAUGGACUGAAGGAGCGCCUCAAAAUAACAUGAGGAUCACCCAUGUGGCGAAAGCCAAGGGCAGGUAGGUCGCAGUCCAUACU [ArgBX 4 #StaticStem #MS2Late]', 'nM', 26.4),
  ('AAGACGGUCGGAAGGAGCGGUACAUGAGGAUCACCCAUGUAUUCCUGGGCAUCCGUAGUGUGCCAGGUAGGUCGCCGAUUGCGGG [XArg-B13]', 'nM', 37.9),
  ('GUGACUUACGGGCGCCAUUUGUGAUAGGAAGGAGCGGCGAAAUAGCCAGGUAGGUCGCCUAUACAUGAGGAUCACCCAUGUCACC [Veveatonus]', 'nM', 105),
  ('GCUGUACCAUGAAGGAGCGUCGUUGAUUGAGAAUACACAUGAGGAUCACCCAUGUUUUUAUGACAGGUAGGUCGCAUGGUACAGC [SSAB #16]', 'nM', 12.9),
  ('CCGGAGACCUCGGCCGCCACUCUCCAUGAGGAUCUCCCAUGUAACAUGAGGAUCACCCAUGUGCUGAGGACCGGGAGGUCCUCCU [Same State Tryptophan B GF 20]', 'nM', 13.2);

----------
test system: MS2 coat protein; experiment: apparent KD of MS2 coat protein; higher = weaker reporter binding; conditions: Eterna round: R107; input ligand: tryptophan 2.4 mM
endpointName: apparent KD of MS2 coat protein (nM)

INSERT INTO assay_data (sequencecontent, subjectoftest, unitofmeasure, numericresult) VALUES
  ('GCUUGGGUGGCACAGCACUGGCAGUGCGAUACCAGCACGGUAACGUGCCCUUGGCAGCGCACAUGAGGAUCACCCAUGUGGUGCG [#1 Exclusion - Theophylline A Attempt #26 (HarryS)]', 'MS2 coat protein', 'nM', 26),
  ('ACAUGAGGAUCACCCAUGUUUGUUGUUCCUCGAGGACCGGUACGGCCGCCACUCGAACGAGUGGCACGCGAGUGCGCACUCGCGU [aPa]', 'MS2 coat protein', 'nM', 13),
  ('CAAUGCGGUUAGGAUACCAGCGACACACACUUCUCACAACACAUGAGGAUCACCCAUGUCCGCCCUUGGCAGCCUUGACUAAGGU [theeternabot_exclusion_MS2_Theo_B_39]', 'MS2 coat protein', 'nM', 27.2),
  ('ACGAUAGGACAUGAGGAUCACCCAUGUGAUACCAGCCUGGAAACAGGCCCUUGGCAGCACAAAUACUCCAGAAACCUAUCGAAUA [TheoAX2 #MicroSwitchBubble]', 'MS2 coat protein', 'nM', 273),
  ('GGAGGUACCCGAAGGAGCGACAUGAGGAUCACCCAUGUCUCCCGUUAUGGGAGUUCCUUAGGUCAGGUAGGUCGCGGGUACCUCC [#1 Exclusion - Arginine B Attempt #1 (Inspired by Omei)]', 'MS2 coat protein', 'nM', 109),
  ('AACUGGAUCAGUGAUACCAGAGACAUGAGGAUCACCCAUGUACAUGAGGAUCACCCAUGUCUCCCUUGGCAGCACAGCAGGGAGC [Exclusion Theophylline B GF 17]', 'MS2 coat protein', 'nM', 64.1),
  ('GGGCCCGGGCCGCGCGCGGCCCGGGCCCAACGAGGACCGGUACGGCCGCCACUCGAACGAGUGGGUACAUGAGGAUCACCCAUGU [Aaa]', 'MS2 coat protein', 'nM', 33.3),
  ('AUAACAUGAGGAUCACCCAUGUAAGCUGAAGGAGCGGACGAAAGUCCAGGUAGGUCGCAGCGCUCCUUCUGGUGAUCUGAAGGAG [(M1)-(M2)-(Arg1)-(Arg2)-(A)''-(M)''-(A)''''_Design3]', 'MS2 coat protein', 'nM', 138),
  ('UCGCUCUGGGUGAAUUCCGGAGAUGUGGAAGGAGCGGACGAAAGUCCAGGUAGGUCGCCAUCGAACAUGAGGAUCACCCAUGUAC [Same State - Arginine A (Freestyle 24)]', 'MS2 coat protein', 'nM', 93.7),
  ('GGCCCUGCGAGCGCUCGCAGGGCCGCGGAUACCAGCGAGGUCCAUCGCCCUUGGCAGCCGAACAUGAGGAUCACCCAUGUCGGUC [#1 Same State - Theophylline A Attempt #11 (HarryS)]', 'MS2 coat protein', 'nM', 10.7),
  ('CCUCGAUUUUGAUACCGAUAUGUCUUUGAUACCAGCGCCAUAGUACGCCCUUGGCAGCAAGAAACAUGAGGAUCACCCAUGUUAA [theeternabot_exclusion_MS2_Theo_A_36]', 'MS2 coat protein', 'nM', 16.7);
